These data points were gathered from PubChem BioAssay AID463173.

Test system: DeltatarO mutant
Test description: S. aureus survival, RN4220 and DeltatarO strains – OD600, teichoic acid synthesis inhibitors, primary screen (AID 463173)
Condition summary: S. aureus RN4220 wild type/DeltatarO growth, OD600, 18 h, hits give low values, screened at 18.75 µg/mL (by protocol)
In all, about 52,000 compounds went through this assay and about 4,300 (8.3%) were called active. The full list was thinned out, with actives kept by preference.
Experimental readout: survival (%)
API: value field is a number in %; no unit string.

Lookup: survival / DeltatarO mutant / COc1ccc(S(=O)(=O)N(C)CC(=O)NCc2ccc3c(c2)OCO3)cc1
89

Lookup: survival / DeltatarO mutant / CCn1c(=O)cc(OCC(=O)NCc2ccc(F)cc2Cl)c2ccccc21
105

Lookup: survival / DeltatarO mutant / CCn1c(=O)cc(OCC(=O)N(C)c2ccc(OC)cc2)c2ccccc21
72

Lookup: survival / DeltatarO mutant / CCn1c(=O)cc(OCC(=O)Nc2ccc(C)c(F)c2)c2ccccc21
60

Lookup: survival / DeltatarO mutant / COc1ccccc1OCC(=O)NCC(c1ccc(Cl)cc1)N1CCCCC1 (configuration not stated)
61

Lookup: survival / DeltatarO mutant / CCN(C(=O)Cn1c(=O)oc2cc(Cl)ccc21)c1cccc(C(F)(F)F)c1
67

Lookup: survival / DeltatarO mutant / CCn1c(=O)cc(OCC(=O)Nc2cc(Cl)c(OC)cc2OC)c2ccccc21
69
